Recorded growth, one value per entry.
test system: OVCAR-8 ovarian; assay: NCI-60 one-dose screen, 48 h (100 = growth as untreated, 0 = no growth, -100 = all killed); settings: 10 µM unless noted
The panel holds about 83,000 compounds, 20% with a hit somewhere; the sample as a whole holds those more often.
Unit % implied. Number only.

Field: example entries. Status: answers known.
molecule	growth [%]
O=S1(=O)c2ccccc2Oc2ccccc21	99.6
FC(F)(F)c1cc(NC2=NCCN=C(Nc3cc(C(F)(F)F)cc(C(F)(F)F)c3)SS2)cc(C(F)(F)F)c1	48.6

Request: growth, test system OVCAR-8 ovarian, entry OC1Cc2ccccc2C1 103

Request: growth, test system OVCAR-8 ovarian, entry CC(=O)c1cccs1 102

Request: growth, test system OVCAR-8 ovarian, entry CCCCc1ccc2nc(NC(=O)OC)[nH]c2c1 11.6

Request: growth, test system OVCAR-8 ovarian, entry CN(CCCN(C)CCC1CCCCC1)CCC1CCCCC1 67.6

Request: growth, test system OVCAR-8 ovarian, entry CCCCCCCCCCCCCC/C=C\C(CC(=O)O)C(=O)O (configuration not stated) 103
